- Assay Text: Water solubility
- Type: physicochemical
- Experimental Context: water
Entries and their solubility values follow.

[
  {
    "Molecule": "CC[C@H](CC[C@@H](C)[C@H]1CC[C@H]2[C@@H]3CC=C4C[C@@H](O[C@@H]5O[C@H](CO)[C@@H](O[C@H]6O[C@H](CO)[C@@H](O)[C@H](O)[C@H]6O)[C@H](O)[C@H]5O)CC[C@]4(C)[C@H]3CC[C@]12C)C(C)C [S.M., sitosteryl β-D-maltoside, reference compound]",
    "solubility, µg/mL": 380
  },
  {
    "Molecule": "CC[C@H](CC[C@@H](C)[C@H]1CC[C@H]2[C@@H]3CC=C4C[C@@H](O[C@@H]5O[C@H](CO)[C@@H](O)[C@H](O)[C@H]5O)CC[C@]4(C)[C@H]3CC[C@]12C)C(C)C [S.G., sitosteryl β-D-glucoside, reference compound]",
    "solubility, µg/mL": 9
  }
]
